Values compiled from patent US8440708B2.

Below: a set of entries, each annotated with reported Ki.
Molecular target: rat P2X3 receptor (Rattus norvegicus)
Construct: expressed in transfected cells; host or cells: CHO-K1
Sequence (P49654 1-397): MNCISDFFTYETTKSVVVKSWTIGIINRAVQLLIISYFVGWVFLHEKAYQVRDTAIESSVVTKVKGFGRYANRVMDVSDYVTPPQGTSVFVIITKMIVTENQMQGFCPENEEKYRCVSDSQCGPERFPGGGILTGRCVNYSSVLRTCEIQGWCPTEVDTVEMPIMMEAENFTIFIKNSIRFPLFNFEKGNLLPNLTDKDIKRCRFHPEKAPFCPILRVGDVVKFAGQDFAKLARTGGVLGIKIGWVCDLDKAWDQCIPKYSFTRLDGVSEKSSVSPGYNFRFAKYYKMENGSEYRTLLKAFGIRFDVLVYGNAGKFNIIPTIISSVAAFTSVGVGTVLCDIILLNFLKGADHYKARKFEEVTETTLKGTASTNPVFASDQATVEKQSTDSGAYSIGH
Experiment: P2X3/P2X2/3 FLIPR (Fluorometric Imaging Plate Reader) Assay, P2X3
Assay type: cell-based
Settings: CHO-K1 cells transfected with rat P2X3; agonist α,β-meATP 1 μM; Table 1; read-out: P2X3 pKi (converted)
Measure name: Ki (nM)

- Compound: "Cc1ccc(-c2cc(C(=O)NCc3cnc(C)cn3)cc(-n3ncnc3C(C)N(C)C)c2)nc1 (stereo not drawn)"
  Reported: 12.3
- Compound: "Cc1ccc(-c2cc(C(=O)NC(C)c3cnccn3)cc(-n3ncnc3C(C)C)c2)cc1 (stereo not drawn)"
  Reported: 3.09
- Compound: "CCc1ncnn1-c1cc(C(=O)NCc2cnc(C)cn2)cc(-c2ccc(C)cn2)c1"
  Reported: 4.9

====

Below: a set of entries, each annotated with reported Ki.
Target: human P2X2/3 receptor (Homo sapiens, UniProt P56373+Q9UBL9)
Construct: expressed in transfected cells; host or cells: CHO-K1
Sequence (Q9UBL9 1-471): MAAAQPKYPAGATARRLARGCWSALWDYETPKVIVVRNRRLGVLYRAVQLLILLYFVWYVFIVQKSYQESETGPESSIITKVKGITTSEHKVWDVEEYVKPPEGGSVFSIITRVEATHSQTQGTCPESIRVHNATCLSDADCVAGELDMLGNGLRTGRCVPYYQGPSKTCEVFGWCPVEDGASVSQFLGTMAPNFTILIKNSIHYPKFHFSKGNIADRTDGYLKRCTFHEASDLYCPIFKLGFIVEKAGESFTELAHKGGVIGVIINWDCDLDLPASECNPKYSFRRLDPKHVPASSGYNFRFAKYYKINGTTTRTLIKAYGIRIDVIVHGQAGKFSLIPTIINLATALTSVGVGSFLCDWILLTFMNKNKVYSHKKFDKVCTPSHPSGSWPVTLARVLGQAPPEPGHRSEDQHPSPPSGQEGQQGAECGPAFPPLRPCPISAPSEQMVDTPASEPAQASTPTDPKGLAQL
Sequence (P56373 1-397): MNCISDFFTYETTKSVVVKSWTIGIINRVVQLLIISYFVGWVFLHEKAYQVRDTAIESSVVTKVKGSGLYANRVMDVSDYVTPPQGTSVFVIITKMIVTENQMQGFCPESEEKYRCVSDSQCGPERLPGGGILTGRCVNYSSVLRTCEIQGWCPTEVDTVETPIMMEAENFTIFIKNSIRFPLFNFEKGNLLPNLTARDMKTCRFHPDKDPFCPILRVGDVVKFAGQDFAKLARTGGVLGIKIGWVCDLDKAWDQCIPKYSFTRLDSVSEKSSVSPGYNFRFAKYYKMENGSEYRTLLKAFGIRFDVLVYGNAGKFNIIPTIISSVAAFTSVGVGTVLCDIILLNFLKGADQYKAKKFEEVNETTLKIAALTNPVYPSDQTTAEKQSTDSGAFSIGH
Experiment: P2X3/P2X2/3 FLIPR (Fluorometric Imaging Plate Reader) Assay, P2X2/3
Assay type: cell-based
Conditions: CHO-K1 cells transfected with human P2X2/3; agonist α,β-meATP 5 μM; Table 1; read-out: P2X2/3 pKi (converted)
Measure name: Ki (nM)

- Mol smiles: "CC(C)Cc1ncnn1-c1cc(C(=O)N[C@@H](C)CO)cc(-c2ccc(Cl)cn2)c1"
  Measure name: "Ki"
  Reported: 646
- Mol smiles: "Cc1ccc(-c2cc(C(=O)N[C@@H](C)CO)cc(-n3ncnc3CC(C)C)c2)nc1"
  Measure name: "Ki"
  Reported: 158
- Mol smiles: "COC[C@@H](C)NC(=O)c1cc(-c2ccc(C)cc2)cc(-n2cnnc2C(C)C)c1"
  Measure name: "Ki"
  Reported: 10000
- Mol smiles: "CCc1ncnn1-c1cc(C(=O)NC2CC2)cc(-c2ccc(C)cn2)c1"
  Measure name: "Ki"
  Reported: 3720
